Experiment: Cytotoxicity assay
Type: cell-based
Conditions: human, HeLa cells
measurement.name: IC50 at 24 h
Don't forget the unit after the value.

Prompt line: Query: IC50 at 24 h; subject: CC[C@H]1CN2CCc3cc(OC)c(OC)cc3[C@@H]2C[C@@H]1C[C@H]1NCCc2cc(OC)c(OC)cc21 [emetine]
Response line: 45 nM
